Biological target: hGLP-1R (Homo sapiens)
Sequence (P43220 24-463): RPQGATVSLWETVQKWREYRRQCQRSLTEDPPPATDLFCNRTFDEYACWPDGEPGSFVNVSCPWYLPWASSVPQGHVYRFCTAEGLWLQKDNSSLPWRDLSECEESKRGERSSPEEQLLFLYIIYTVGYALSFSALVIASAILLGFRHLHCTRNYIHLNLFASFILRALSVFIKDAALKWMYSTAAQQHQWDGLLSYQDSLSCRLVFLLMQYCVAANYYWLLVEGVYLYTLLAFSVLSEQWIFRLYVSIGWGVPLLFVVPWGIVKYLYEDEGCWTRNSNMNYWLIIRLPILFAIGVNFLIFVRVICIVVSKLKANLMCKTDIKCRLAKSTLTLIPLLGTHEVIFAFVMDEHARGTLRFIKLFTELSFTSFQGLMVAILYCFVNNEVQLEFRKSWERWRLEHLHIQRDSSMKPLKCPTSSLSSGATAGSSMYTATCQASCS
Experiment: Functional cAMP activation in the presence of 0.1% casein (no HSA);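 also: intracellular cAMP rise after 30 min at 37 °C read by HTRF, normalized between buffer only (0%) and maximal control ligand (100%), four-parameter variable-slope fit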
Assay type: cell-based
Details: in the presence of 0.1% casein (no HSA); geometric mean; read-out: Relative cAMP EC50, hGLP-1R
pEC50: −log10 of the molar value. Starred links: 1 amine or outer side, 2 acyl side, 3 side chain; linkers in the order of their positions; H or OH if unused. Non-standard residues stand in square brackets, D forms with d. Groups on a side chain read outwards from the residue. No end group written: not given here. *: point of attachment. C20 diacid = O=C(O)CCCCCCCCCCCCCCCCCCC(=O)*; C18 diacid = O=C(O)CCCCCCCCCCCCCCCCC(=O)*; γGlu = O=C(O)[C@H](CCC(=O)[*:2])N[*:1]; αMe4Pal = C[C@](N)(Cc1ccncc1)C(=O)O; 4Pal = N[C@@H](Cc1ccncc1)C(=O)O; αMeL = CC(C)C[C@](C)(N)C(=O)O; Orn = NCCC[C@H](N)C(=O)O; AEEA = NCCOCCOCC(=O)O; Aib = CC(C)(N)C(=O)O
measurement kind: pEC50

> print(dat)
                                  substance  measurement.kind  observed
1  H-Y[Aib]QGTFTSDFS[Orn][αMeL]LDKK([AEEA-γGlu-C20 diacid])AQ[Aib]AFIEWLLEGGPSSGAPPPSGS-NH2 [Example 78]             pEC50      8.71
2  Y[Aib]QGTFTSDFSK[αMeL]LDKK([AEEA-γGlu-C20 diacid])AQ[Aib]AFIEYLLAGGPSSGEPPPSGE-NH2 [Example 2]             pEC50      8.78
3  Y[Aib]QGTFTSD[4Pal]SQ[αMeL]LDKK([γGlu-dE-dE-C18 diacid])AQ[αMe4Pal]AFIEYLIE[Aib]GPSSGAPPPSGSEE-NH2 [Example 930]             pEC50      7.96

###

Measured EC50, listed per entry for reference.
Molecular target: hGLP-1R (Homo sapiens)
Experiment: Functional cAMP activity in the presence of 1% HSA
Type: cell-based
Conditions: read-out: cAMP Rel EC50, hGLP-1R
Starred links: 1 amine or outer side, 2 acyl side, 3 side chain; linkers in the order of their positions; H or OH if unused. Non-standard residues stand in square brackets, D forms with d. Groups on a side chain read outwards from the residue. *: point of attachment. C18 diacid = O=C(O)CCCCCCCCCCCCCCCCC(=O)*; αMePhe(2-F) = C[C@](N)(Cc1ccccc1F)C(=O)O; γGlu = O=C(O)[C@H](CCC(=O)[*:2])N[*:1]; αMe4Pal = C[C@](N)(Cc1ccncc1)C(=O)O; αMeY = C[C@](N)(Cc1ccc(O)cc1)C(=O)O; 4Pal = N[C@@H](Cc1ccncc1)C(=O)O; αMeL = CC(C)C[C@](C)(N)C(=O)O; αMeS = C[C@](N)(CO)C(=O)O; Orn = NCCC[C@H](N)C(=O)O; Dap = NC[C@H](N)C(=O)O; AEEA = NCCOCCOCC(=O)O; Aib = CC(C)(N)C(=O)O

substance	experimental target	EC50
H-Y[Aib]QGT[αMePhe(2-F)]TSD[4Pal][αMeS]I[αMeL]LD[Orn]K([AEEA-AEEA-γGlu-C18 diacid])AQ[αMe4Pal]EFI[dE][αMeY]LIEGGPSSGEPPPSGS-NH2 [Example 1208]	hGLP-1R (Homo sapiens)	44.8 nM
H-Y[Aib]QGTFTSD[4Pal]SQ[αMeL]LDKK([AEEA-γGlu-C18 diacid])AQ[αMe4Pal]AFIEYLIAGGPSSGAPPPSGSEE-NH2 [Example 1029]	hGLP-1R (Homo sapiens)	170 nM
H-Y[Aib]QGTFTSDFS[Dap][αMeL]LDKK([AEEA-γGlu-C18 diacid])AQ[Aib]AFIEYLIE[Aib]GPSSGAPPPSGS-NH2 [Example 800]	hGLP-1R (Homo sapiens)	164 nM
H-Y[Aib]QGTFTSD[4Pal]S[Orn][αMeL]LDKK([AEEA-γGlu-C18 diacid])AQ[Aib]AFIEYLLE[dA]GPSSGAPPPSG[4Pal]-NH2 [Example 274]	hGLP-1R (Homo sapiens)	560 nM
H-Y[Aib]QGT[αMePhe(2-F)]TSD[4Pal][αMeS]I[αMeL]LD[Orn]K([AEEA-γGlu-C18 diacid])AQ[Aib][Orn]FI[dE][αMeY]LIEGGPSSGEPPPEEG-NH2 [Example 462]	hGLP-1R (Homo sapiens)	12.9 nM
H-Y[Aib]QGTFTSDFS[Orn][αMeL]LDKK([AEEA-γGlu-C18 diacid])AQ[Aib]AFIEYLIE[Aib]SPSSGAPPPSGS-NH2 [Example 804]	hGLP-1R (Homo sapiens)	161 nM
